Biological target: Orexin receptor type 2 (Homo sapiens)
Sequence (O43614 whole entry): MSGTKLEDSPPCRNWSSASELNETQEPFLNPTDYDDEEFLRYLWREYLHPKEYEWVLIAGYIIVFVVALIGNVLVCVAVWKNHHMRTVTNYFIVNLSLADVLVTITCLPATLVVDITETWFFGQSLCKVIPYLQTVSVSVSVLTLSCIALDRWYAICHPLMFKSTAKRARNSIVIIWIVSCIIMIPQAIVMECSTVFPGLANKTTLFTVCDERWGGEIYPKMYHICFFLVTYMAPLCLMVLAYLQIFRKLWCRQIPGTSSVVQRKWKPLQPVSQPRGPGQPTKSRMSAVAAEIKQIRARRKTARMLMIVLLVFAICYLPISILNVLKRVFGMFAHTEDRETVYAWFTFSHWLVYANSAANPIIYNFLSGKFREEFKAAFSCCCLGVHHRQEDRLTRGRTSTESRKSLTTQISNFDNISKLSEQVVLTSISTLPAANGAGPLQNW
Test: Counterscreen assay for antagonists of the orexin 1 receptor (OX1R; HCRTR1): Homogeneous Time Resolved Fluorescence (HTRF)-based cell-based dose response assay for antagonists of the orexin 2 receptor (OX2R; HCRTR2), run by assay provider.
Assay type: functional
Calls of active or inactive are those of the source. Cut-off read from the data, not from the text of the source: active = IC50 of 10 µM or less and inactive = more.
Entry note: the call must match one of active, inactive

molecule: Nc1nc(-c2sc3nc4c(cc3c2N)CCCC4)nc(N2CCOCC2)n1
answer.label: inactive

Input line: Which outcome was assigned to "COc1ccccc1C(=O)Nc1nc2cc3c(cc2s1)OCCO3" in this test?
Output line: inactive

Input line: // outcome(item) with item = COc1ccc(OCc2n(CC(=O)OC3CC(C)CCC3C(C)C)c3ccccc3[n+]2C)cc1.[Cl-] (stereo not given)
Output line: inactive

Input line: Hey, what did the test say about "Cc1cc(C(=O)NCc2cccc(Cl)c2)c2ccccc2n1" ?
Output line: active

Input line: Which outcome was assigned to "CCOC(=O)c1c(C)nc2c3ccccc3ccn12" in this test?
Output line: inactive
